Provenance of the data: patent US9365572B2

# system: JAK3 (Homo sapiens (Human), UniProt P52333)
# Sequence (P52333 whole entry, species assumed): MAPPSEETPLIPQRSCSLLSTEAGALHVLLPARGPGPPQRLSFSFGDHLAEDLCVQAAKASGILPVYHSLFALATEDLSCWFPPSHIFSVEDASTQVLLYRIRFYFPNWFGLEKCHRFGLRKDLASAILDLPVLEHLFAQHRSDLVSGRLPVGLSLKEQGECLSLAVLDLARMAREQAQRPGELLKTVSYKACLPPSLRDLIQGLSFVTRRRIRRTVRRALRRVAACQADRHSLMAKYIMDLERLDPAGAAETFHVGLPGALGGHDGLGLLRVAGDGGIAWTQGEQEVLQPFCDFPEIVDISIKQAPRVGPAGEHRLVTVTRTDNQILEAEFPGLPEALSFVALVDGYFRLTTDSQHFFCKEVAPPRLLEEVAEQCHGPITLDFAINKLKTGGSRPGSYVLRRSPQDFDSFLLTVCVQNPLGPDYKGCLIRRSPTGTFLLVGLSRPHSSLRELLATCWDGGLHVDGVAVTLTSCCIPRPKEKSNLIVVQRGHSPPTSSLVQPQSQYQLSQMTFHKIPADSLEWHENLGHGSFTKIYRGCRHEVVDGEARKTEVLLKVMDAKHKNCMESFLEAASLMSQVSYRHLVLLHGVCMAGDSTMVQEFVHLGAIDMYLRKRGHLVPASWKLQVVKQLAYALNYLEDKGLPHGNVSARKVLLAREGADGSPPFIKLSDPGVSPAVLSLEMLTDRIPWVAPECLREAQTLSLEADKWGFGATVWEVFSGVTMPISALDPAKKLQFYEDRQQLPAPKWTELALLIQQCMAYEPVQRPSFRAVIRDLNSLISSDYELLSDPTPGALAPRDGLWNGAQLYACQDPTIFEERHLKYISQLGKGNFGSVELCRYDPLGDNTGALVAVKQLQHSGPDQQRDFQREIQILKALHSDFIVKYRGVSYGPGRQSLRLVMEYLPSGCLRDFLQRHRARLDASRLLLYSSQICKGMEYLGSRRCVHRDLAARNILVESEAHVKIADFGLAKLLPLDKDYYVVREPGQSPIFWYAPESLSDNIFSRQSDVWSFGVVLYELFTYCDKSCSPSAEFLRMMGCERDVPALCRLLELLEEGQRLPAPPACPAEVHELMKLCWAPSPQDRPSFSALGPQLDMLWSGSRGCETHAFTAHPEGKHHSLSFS
# assay-details: Kinase selectivity, Mobility shift assay
# Assay type: biochemical
# Method: Object: In this assay, the inhibitory activity of the test substance on the kinases listed in Table 3 was determined, and therefore the selectivity of the present compound was determined. […] • 3.1 To the 384-well reaction plate was added 5-fold compound dissolved in 10% DMSO at 5 μl/well. • 3.2 To the 384-well reaction plate was added 2.5-fold kinase solution at 10 μl/well. […] The conversion was read from Caliper. […]
measure-name: IC50

## Input Which IC50 value belongs to Nc1ccc(-c2ccc3ncc4c(=O)[nH]c(=O)n(-c5cccc(C(F)(F)F)c5)c4c3n2)cn1 [Compound 5] ?
## Output > 10000 nM

----------
# system: NEK2 (Homo sapiens (Human))
# Sequence (P51955 whole entry, species assumed): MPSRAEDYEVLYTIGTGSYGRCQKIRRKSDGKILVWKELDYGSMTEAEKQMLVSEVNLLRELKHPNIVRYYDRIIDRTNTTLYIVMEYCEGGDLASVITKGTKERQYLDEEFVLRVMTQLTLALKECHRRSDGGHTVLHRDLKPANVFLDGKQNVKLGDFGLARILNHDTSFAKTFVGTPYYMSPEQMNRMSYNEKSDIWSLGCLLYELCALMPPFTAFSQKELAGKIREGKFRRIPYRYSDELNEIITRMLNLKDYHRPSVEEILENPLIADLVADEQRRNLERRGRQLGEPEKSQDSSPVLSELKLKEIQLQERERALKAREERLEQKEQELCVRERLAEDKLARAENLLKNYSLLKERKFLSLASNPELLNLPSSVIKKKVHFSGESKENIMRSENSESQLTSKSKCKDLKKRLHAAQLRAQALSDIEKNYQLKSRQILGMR
# assay-details: Kinase selectivity, Mobility shift assay
# Format: biochemical
measure-name: IC50

## Input Which IC50 value belongs to "Nc1ccc(-c2ccc3ncc4c(=O)[nH]c(=O)n(-c5cccc(C(F)(F)F)c5)c4c3n2)cn1" ?
## Output > 10000 nM

----------
# system: CHK1 (Homo sapiens (Human))
# Sequence (O14757 whole entry, species assumed): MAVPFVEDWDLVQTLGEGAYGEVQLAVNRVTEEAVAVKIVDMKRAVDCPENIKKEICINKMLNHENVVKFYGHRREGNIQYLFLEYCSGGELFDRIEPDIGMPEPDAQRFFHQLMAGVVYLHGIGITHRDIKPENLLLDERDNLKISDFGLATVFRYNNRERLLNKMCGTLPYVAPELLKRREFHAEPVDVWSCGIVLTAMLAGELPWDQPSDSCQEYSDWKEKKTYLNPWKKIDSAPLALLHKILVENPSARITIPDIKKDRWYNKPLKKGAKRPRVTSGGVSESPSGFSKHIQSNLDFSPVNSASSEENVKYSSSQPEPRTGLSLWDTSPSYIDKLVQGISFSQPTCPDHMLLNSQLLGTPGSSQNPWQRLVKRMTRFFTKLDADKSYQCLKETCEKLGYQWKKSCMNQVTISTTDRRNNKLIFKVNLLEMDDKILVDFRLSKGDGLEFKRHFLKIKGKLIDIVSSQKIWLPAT
# assay-details: Kinase selectivity, Mobility shift assay
# Format: biochemical
measure-name: IC50

## Input Which IC50 value belongs to "Nc1ccc(-c2ccc3ncc4c(=O)[nH]c(=O)n(-c5cccc(C(F)(F)F)c5)c4c3n2)cn1" ?
## Output > 10000 nM

----------
# system: DYRK1b (Homo sapiens (Human), UniProt Q9Y463)
# Sequence (Q9Y463 whole entry, species assumed): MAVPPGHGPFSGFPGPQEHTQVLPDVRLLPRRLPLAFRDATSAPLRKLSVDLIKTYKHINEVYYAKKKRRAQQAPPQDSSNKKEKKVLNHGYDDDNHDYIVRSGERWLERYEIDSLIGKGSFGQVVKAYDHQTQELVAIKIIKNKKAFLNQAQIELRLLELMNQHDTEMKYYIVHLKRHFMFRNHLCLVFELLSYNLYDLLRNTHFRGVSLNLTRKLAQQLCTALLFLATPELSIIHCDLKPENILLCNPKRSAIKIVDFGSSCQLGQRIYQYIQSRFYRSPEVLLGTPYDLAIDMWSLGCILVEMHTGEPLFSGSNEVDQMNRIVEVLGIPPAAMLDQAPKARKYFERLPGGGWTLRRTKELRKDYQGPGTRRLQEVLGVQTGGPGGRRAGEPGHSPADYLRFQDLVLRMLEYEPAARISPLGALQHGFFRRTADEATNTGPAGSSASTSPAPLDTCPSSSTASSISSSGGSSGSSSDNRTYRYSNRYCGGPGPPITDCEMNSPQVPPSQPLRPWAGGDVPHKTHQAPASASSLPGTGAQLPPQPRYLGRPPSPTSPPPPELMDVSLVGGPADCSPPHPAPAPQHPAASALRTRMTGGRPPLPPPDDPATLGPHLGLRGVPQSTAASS
# assay-details: Kinase selectivity, Mobility shift assay
# Assay type: biochemical
measure-name: IC50

## Input Which IC50 value belongs to "Nc1ccc(-c2ccc3ncc4c(=O)[nH]c(=O)n(-c5cccc(C(F)(F)F)c5)c4c3n2)cn1" ?
## Output > 10000 nM

----------
# system: CSK (Homo sapiens (Human), UniProt P41240)
# Sequence (P41240 whole entry, species assumed): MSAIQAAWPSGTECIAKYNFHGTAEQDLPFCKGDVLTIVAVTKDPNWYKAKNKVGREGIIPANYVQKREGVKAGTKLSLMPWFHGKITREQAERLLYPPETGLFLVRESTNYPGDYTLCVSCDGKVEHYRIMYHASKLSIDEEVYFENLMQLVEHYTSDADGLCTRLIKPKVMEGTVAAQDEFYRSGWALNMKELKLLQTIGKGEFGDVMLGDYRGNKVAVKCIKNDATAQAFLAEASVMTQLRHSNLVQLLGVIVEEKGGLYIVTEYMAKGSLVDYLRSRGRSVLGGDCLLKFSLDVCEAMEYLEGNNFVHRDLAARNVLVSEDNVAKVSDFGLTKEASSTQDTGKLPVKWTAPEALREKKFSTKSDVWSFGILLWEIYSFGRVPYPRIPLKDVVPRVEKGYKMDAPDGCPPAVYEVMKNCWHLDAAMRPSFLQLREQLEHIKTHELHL
# assay-details: Kinase selectivity, Mobility shift assay
# Assay type: biochemical
measure-name: IC50

## Input Which IC50 value belongs to Nc1ccc(-c2ccc3ncc4c(=O)[nH]c(=O)n(-c5cccc(C(F)(F)F)c5)c4c3n2)cn1 [Compound 5] ?
## Output > 10000 nM

----------
# system: CAMK2a (Homo sapiens (Human))
# Sequence (Q9UQM7 whole entry, species assumed): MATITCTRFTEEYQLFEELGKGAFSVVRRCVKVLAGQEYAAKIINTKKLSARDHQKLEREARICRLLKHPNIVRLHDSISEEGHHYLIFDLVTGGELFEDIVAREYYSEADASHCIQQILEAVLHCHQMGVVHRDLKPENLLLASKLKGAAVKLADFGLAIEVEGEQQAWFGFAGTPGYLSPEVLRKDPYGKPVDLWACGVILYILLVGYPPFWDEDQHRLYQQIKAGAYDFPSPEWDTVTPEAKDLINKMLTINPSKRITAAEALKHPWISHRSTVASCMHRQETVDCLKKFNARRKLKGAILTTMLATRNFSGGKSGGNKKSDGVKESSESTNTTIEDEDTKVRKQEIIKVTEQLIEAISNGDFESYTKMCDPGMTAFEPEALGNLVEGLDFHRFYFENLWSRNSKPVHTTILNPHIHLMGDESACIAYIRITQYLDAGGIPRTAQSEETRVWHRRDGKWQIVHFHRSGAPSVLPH
# assay-details: Kinase selectivity, Mobility shift assay
# Type: biochemical
measure-name: IC50

## Input Please provide the recorded IC50 for "Nc1ccc(-c2ccc3ncc4c(=O)[nH]c(=O)n(-c5cccc(C(F)(F)F)c5)c4c3n2)cn1" , tested on CAMK2a (Homo sapiens (Human)).
## Output > 10000 nM

----------
# system: UniProt:P12931
# Sequence (P12931 whole entry, looked up, species assumed): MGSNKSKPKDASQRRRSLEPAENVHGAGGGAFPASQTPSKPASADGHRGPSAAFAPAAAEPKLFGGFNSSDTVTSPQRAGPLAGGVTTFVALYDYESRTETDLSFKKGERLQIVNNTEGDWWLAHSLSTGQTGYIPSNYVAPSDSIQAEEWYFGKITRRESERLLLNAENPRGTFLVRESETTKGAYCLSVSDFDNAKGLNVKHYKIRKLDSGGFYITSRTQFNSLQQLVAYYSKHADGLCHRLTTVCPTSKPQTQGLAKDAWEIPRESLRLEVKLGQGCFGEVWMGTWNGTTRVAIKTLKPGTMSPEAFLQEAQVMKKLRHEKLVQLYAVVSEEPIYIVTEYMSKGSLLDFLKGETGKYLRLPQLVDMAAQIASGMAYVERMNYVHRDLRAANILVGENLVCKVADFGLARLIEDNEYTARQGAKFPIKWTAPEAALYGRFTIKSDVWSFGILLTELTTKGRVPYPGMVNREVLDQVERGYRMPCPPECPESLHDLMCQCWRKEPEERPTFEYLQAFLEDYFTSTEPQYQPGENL
# assay-details: Kinase selectivity, Mobility shift assay
# Format: biochemical
# Method: Object: In this assay, the inhibitory activity of the test substance on the kinases listed in Table 3 was determined, and therefore the selectivity of the present compound was determined. […] • 3.1 To the 384-well reaction plate was added 5-fold compound dissolved in 10% DMSO at 5 μl/well. • 3.2 To the 384-well reaction plate was added 2.5-fold kinase solution at 10 μl/well. […] The conversion was read from Caliper. […]
measure-name: IC50 (nM)
Field format: number, assumed nM, no unit text.

## Input Which IC50 value belongs to Nc1ccc(-c2ccc3ncc4c(=O)[nH]c(=O)n(-c5cccc(C(F)(F)F)c5)c4c3n2)cn1 [Compound 5] ?
## Output 842

----------
# system: AKT1 (Homo sapiens (Human), UniProt P31749)
# Sequence (P31749 whole entry, species assumed): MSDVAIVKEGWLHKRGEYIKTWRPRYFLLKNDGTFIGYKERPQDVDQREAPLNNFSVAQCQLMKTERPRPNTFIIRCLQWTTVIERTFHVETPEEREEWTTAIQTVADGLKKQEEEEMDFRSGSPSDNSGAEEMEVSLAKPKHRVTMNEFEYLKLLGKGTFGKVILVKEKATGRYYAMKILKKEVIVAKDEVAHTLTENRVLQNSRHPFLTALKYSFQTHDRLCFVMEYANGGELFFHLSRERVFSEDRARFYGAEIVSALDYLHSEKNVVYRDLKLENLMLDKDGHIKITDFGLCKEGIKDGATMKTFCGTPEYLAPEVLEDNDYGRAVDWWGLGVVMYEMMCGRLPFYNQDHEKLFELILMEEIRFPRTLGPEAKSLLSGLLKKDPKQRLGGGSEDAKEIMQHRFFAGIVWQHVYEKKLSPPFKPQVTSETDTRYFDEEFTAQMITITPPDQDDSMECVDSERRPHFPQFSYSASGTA
# assay-details: Kinase selectivity, Mobility shift assay
# Type: biochemical
measure-name: IC50

## Input Please provide the recorded IC50 for Nc1ccc(-c2ccc3ncc4c(=O)[nH]c(=O)n(-c5cccc(C(F)(F)F)c5)c4c3n2)cn1 [Compound 5] , tested on AKT1 (Homo sapiens (Human), UniProt P31749).
## Output > 10000 nM
